target: Recombinant human Gal3 (rhGal3) (TrueBinding, #QC200361) (human, UniProt P17931 2-250); also: test concentration or dose not given here
protocol_description: cell-based or functional assay
property_name: % inhibition of IL-6 secretion (%)
# unit: % | format: bare number

* 15G7.2A7 (antibody, human IgG4 S228P, kappa, V domains shown) VH: EVQLQQSGPELVKPGASVKISCKASGYTFTDYYMNWVKQSHGKSLEWIGDINPNNGGTNYNQKFKGKATLTVDKSSSTAYMELRSLTSEDSAVYYCTSGYGFPYWGQGTLVTVSA VL: DIQMNQSPSSLSASLGDTISITCRASQNINIWLSWYQQKPGNIPQLLIYKASNLHTGVPSRFSGSGSGTDFTLTISSLQPEDIATYYCLQGQSYPLTFGAGTKLVMKR | 31

Param item = 7D8.2D8 (antibody, mouse IgG2a, V domains shown) VH: EVQLVESGGGLVKPGGSLKLSCAASGFTFSSYAMSWVRQTPEKRLEWVATISDGGIYTYYPDNVKGRFTISRDNAKNNLFLQMSHLKSEDTAMYYCVRDGGYWGQGTTLTVSS VL: DVLMTQTPLSLPVSLGDQASISCRSSQSIVHSNGNTYLEWYLQKPGQSPKLLIYKVSNRFSGVPDRFSGSGSGTDFTLKISRVEAEDLGVYYCFQGSHVPLTFGAGTKLELKR ; retrieve measured % inhibition of IL-6 secretion.
17.4

Param item = 20D11.2C6 (antibody, mouse IgG2a, V domains shown) VH: EVQLQQSGPELVKPGASVKISCKASGYTFTDFYINWVKQSHGKSLEWIGDINPKNGGINYNPKFKIKATLTVDKSSSTSYMDLRGLTSEDSAVYYCTSGYGFPYWGQGTLVTVSA VL: DIQMNQSPSSLSASLGDTITITCRASQNIYIWLSWYQQKPGNIPKLLIYKASNLHTGVPSRFSGSGSGTDFTLTISTLQPEDIATYFCLQGQSYPLTFGAGTKLEMKR ; retrieve measured % inhibition of IL-6 secretion.
43.7
